Test system: Staphylococcus epidermidis
experimental.details: Antimicrobial activity against methicillin-resistant Staphylococcus epidermidis isolate 455/11 after 18 hrs by twofold serial broth dilution method
Type: functional
measurement.context: isolate 455/11, 18 h
measured.metric: MIC (µg/mL)

compound.string | measured.target | meas.value
O=C(O)c1cn(C2CC2)c2cc(N3CCNCC3)c(F)cc2c1=O | Staphylococcus epidermidis | 32
CC[C@@H](C(=O)[C@@H](C)[C@@H](O)[C@H](C)[C@@H]1O[C@@H]([C@@H](CC)C(=O)N(CCO)CCO)CC[C@@H]1C)[C@H]1O[C@]2(C=C[C@@H](O)[C@]3(CC[C@@](C)([C@H]4CC[C@](O)(CC)[C@H](C)O4)O3)O2)[C@H](C)C[C@@H]1C | Staphylococcus epidermidis | 4
CC[C@@H](C(=O)[C@@H](C)[C@@H](O)[C@H](C)[C@@H]1O[C@@H]([C@@H](CC)C(=O)N(CC)CC)CC[C@@H]1C)[C@H]1O[C@]2(C=C[C@@H](O)[C@]3(CC[C@@](C)([C@H]4CC[C@](O)(CC)[C@H](C)O4)O3)O2)[C@H](C)C[C@@H]1C | Staphylococcus epidermidis | 8

====

Test system: Staphylococcus epidermidis
experimental.details: Antimicrobial activity against Staphylococcus epidermidis ATCC 12228 after 18 hrs by twofold serial broth dilution method
Assay type: functional
measurement.context: ATCC 12228, 18 h
Reported values of MIC for individual entries

molecule | MIC / µg/mL
CC[C@@H](C(=O)[C@@H](C)[C@@H](O)[C@H](C)[C@@H]1O[C@@H]([C@@H](CC)C(=O)N(CCO)CCO)CC[C@@H]1C)[C@H]1O[C@]2(C=C[C@@H](O)[C@]3(CC[C@@](C)([C@H]4CC[C@](O)(CC)[C@H](C)O4)O3)O2)[C@H](C)C[C@@H]1C | 4
CCCCCCCCN(CCCCCCCC)C(=O)[C@H](CC)[C@H]1CC[C@H](C)[C@H]([C@@H](C)[C@H](O)[C@H](C)C(=O)[C@H](CC)[C@H]2O[C@]3(C=C[C@@H](O)[C@]4(CC[C@@](C)([C@H]5CC[C@](O)(CC)[C@H](C)O5)O4)O3)[C@H](C)C[C@@H]2C)O1 | 128
O=C(O)c1cn(C2CC2)c2cc(N3CCNCC3)c(F)cc2c1=O [CIPROFLOXACIN] | 0.25
CC[C@@H](C(=O)[C@@H](C)[C@@H](O)[C@H](C)[C@@H]1O[C@@H]([C@@H](CC)C(=O)N(CC)CC)CC[C@@H]1C)[C@H]1O[C@]2(C=C[C@@H](O)[C@]3(CC[C@@](C)([C@H]4CC[C@](O)(CC)[C@H](C)O4)O3)O2)[C@H](C)C[C@@H]1C | 2

====

Test system: Staphylococcus epidermidis
experimental.details: Antimicrobial activity against methicillin-resistant Staphylococcus epidermidis isolate 404/10 after 18 hrs by twofold serial broth dilution method
Type: functional
measurement.context: isolate 404/10, 18 h
measured.metric: MIC (µg/mL)

molecule | meas.value
CCCN(CCC)C(=O)[C@H](CC)[C@H]1CC[C@H](C)[C@H]([C@@H](C)[C@H](O)[C@H](C)C(=O)[C@H](CC)[C@H]2O[C@]3(C=C[C@@H](O)[C@]4(CC[C@@](C)([C@H]5CC[C@](O)(CC)[C@H](C)O5)O4)O3)[C@H](C)C[C@@H]2C)O1 | 4
CC[C@@H](C(=O)[C@@H](C)[C@@H](O)[C@H](C)[C@@H]1O[C@@H]([C@@H](CC)C(=O)N(CCO)CCO)CC[C@@H]1C)[C@H]1O[C@]2(C=C[C@@H](O)[C@]3(CC[C@@](C)([C@H]4CC[C@](O)(CC)[C@H](C)O4)O3)O2)[C@H](C)C[C@@H]1C | 4
O=C(O)c1cn(C2CC2)c2cc(N3CCNCC3)c(F)cc2c1=O [CIPROFLOXACIN] | 32
CC[C@@H](C(=O)[C@@H](C)[C@@H](O)[C@H](C)[C@@H]1O[C@@H]([C@@H](CC)C(=O)N2CCOCC2)CC[C@@H]1C)[C@H]1O[C@]2(C=C[C@@H](O)[C@]3(CC[C@@](C)([C@H]4CC[C@](O)(CC)[C@H](C)O4)O3)O2)[C@H](C)C[C@@H]1C | 256
